measurementProtocol: in vivo
assayConditions: SD, rat, iv, 1 mg/kg
reportedProperty: Vd (L/kg)

> print(dat)
                                   compound  unitsymbol  measured
1  N#Cc1c(-c2c[nH]c3ncc(F)cc23)nc(NC2C3CCC(CC3)C2C(=O)O)c(F)c1C1CC1 (racemic)        L/kg     0.551
2  N#Cc1c(-c2c[nH]c3c(F)cc(F)cc23)nc(NC2C3CCC(CC3)C2C(=O)O)c(F)c1-c1ccco1 (racemic)        L/kg     0.231
3  N#Cc1c(-c2c[nH]c3c(F)cc(F)cc23)nc(NC2C3CCC(CC3)C2C(=O)O)c(F)c1-c1ccc(C(F)(F)F)cc1 (racemic)        L/kg      1.98
4  N#Cc1c(-c2c[nH]c3c(F)cc(F)cc23)nc(NC2C3CCC(CC3)C2C(=O)O)c(F)c1-c1ccccc1 (racemic)        L/kg     0.432

###

AUC(0-t) for assorted compounds
measurementProtocol: in vivo
assayConditions: SD, rat, po, 5 mg/kg
reportedProperty: AUC(0-t)

> print(dat)
                                   compound      measured
1  N#Cc1c(-c2c[nH]c3ncc(F)cc23)nc(NC2C3CCC(CC3)C2C(=O)O)c(F)c1C1CC1 (racemic)  8.14 µg·h/mL
2  N#Cc1c(-c2c[nH]c3c(F)cc(F)cc23)nc(NC2C3CCC(CC3)C2C(=O)O)c(F)c1-c1ccc(C(F)(F)F)cc1 (racemic)  12.6 µg·h/mL
3  N#Cc1c(-c2c[nH]c3c(F)cc(F)cc23)nc(NC2C3CCC(CC3)C2C(=O)O)c(F)c1-c1ccco1 (racemic)  21.3 µg·h/mL
4  N#Cc1c(-c2c[nH]c3c(F)cc(F)cc23)nc(NC2C3CCC(CC3)C2C(=O)O)c(F)c1-c1ccccc1 (racemic)  10.1 µg·h/mL

###

Cmax for assorted molecules
measurementProtocol: in vivo
assayConditions: SD, rat, po, 5 mg/kg
reportedProperty: Cmax (ng/mL)

> print(dat)
                                   molecule  reportedproperty  measured
1  N#Cc1c(-c2c[nH]c3c(F)cc(F)cc23)nc(NC2C3CCC(CC3)C2C(=O)O)c(F)c1-c1ccco1 (racemic) [Example 1]              Cmax      5780
2  N#Cc1c(-c2c[nH]c3c(F)cc(F)cc23)nc(NC2C3CCC(CC3)C2C(=O)O)c(F)c1-c1ccccc1 (racemic) [Example 14]              Cmax      2980
3  N#Cc1c(-c2c[nH]c3c(F)cc(F)cc23)nc(NC2C3CCC(CC3)C2C(=O)O)c(F)c1-c1ccc(C(F)(F)F)cc1 (racemic) [Example 3]              Cmax      8860
4  N#Cc1c(-c2c[nH]c3ncc(F)cc23)nc(NC2C3CCC(CC3)C2C(=O)O)c(F)c1C1CC1 (racemic) [Example 9]              Cmax      2850

###

Tmax for assorted compounds
measurementProtocol: in vivo
assayConditions: SD, rat, po, 5 mg/kg
reportedProperty: Tmax (min)

> print(dat)
                                   compound  reportedproperty  measured
1  N#Cc1c(-c2c[nH]c3c(F)cc(F)cc23)nc(NC2C3CCC(CC3)C2C(=O)O)c(F)c1-c1ccco1 (racemic) [Example 1]              Tmax        66
2  N#Cc1c(-c2c[nH]c3ncc(F)cc23)nc(NC2C3CCC(CC3)C2C(=O)O)c(F)c1C1CC1 (racemic) [Example 9]              Tmax      27.6
3  N#Cc1c(-c2c[nH]c3c(F)cc(F)cc23)nc(NC2C3CCC(CC3)C2C(=O)O)c(F)c1-c1ccccc1 (racemic) [Example 14]              Tmax      73.2
4  N#Cc1c(-c2c[nH]c3c(F)cc(F)cc23)nc(NC2C3CCC(CC3)C2C(=O)O)c(F)c1-c1ccc(C(F)(F)F)cc1 (racemic) [Example 3]              Tmax        21

###

Cmax for assorted compounds
measurementProtocol: in vivo
assayConditions: SD, rat, iv, 1 mg/kg
reportedProperty: Cmax (ng/mL)

> print(dat)
                                   compound  reportedproperty  measured
1  N#Cc1c(-c2c[nH]c3c(F)cc(F)cc23)nc(NC2C3CCC(CC3)C2C(=O)O)c(F)c1-c1ccccc1 (racemic)              Cmax      4130
2  N#Cc1c(-c2c[nH]c3c(F)cc(F)cc23)nc(NC2C3CCC(CC3)C2C(=O)O)c(F)c1-c1ccco1 (racemic)              Cmax      6560
3  N#Cc1c(-c2c[nH]c3ncc(F)cc23)nc(NC2C3CCC(CC3)C2C(=O)O)c(F)c1C1CC1 (racemic)              Cmax      3640
4  N#Cc1c(-c2c[nH]c3c(F)cc(F)cc23)nc(NC2C3CCC(CC3)C2C(=O)O)c(F)c1-c1ccc(C(F)(F)F)cc1 (racemic)              Cmax      4340

###

measurementProtocol: in vivo
assayConditions: SD, rat, iv, 1 mg/kg
reportedProperty: clearance (mL/min/kg)

> print(dat)
                                   compound  measured
1  N#Cc1c(-c2c[nH]c3c(F)cc(F)cc23)nc(NC2C3CCC(CC3)C2C(=O)O)c(F)c1-c1ccco1 (racemic)      3.86
2  N#Cc1c(-c2c[nH]c3ncc(F)cc23)nc(NC2C3CCC(CC3)C2C(=O)O)c(F)c1C1CC1 (racemic)      5.46
3  N#Cc1c(-c2c[nH]c3c(F)cc(F)cc23)nc(NC2C3CCC(CC3)C2C(=O)O)c(F)c1-c1ccc(C(F)(F)F)cc1 (racemic)      7.18
4  N#Cc1c(-c2c[nH]c3c(F)cc(F)cc23)nc(NC2C3CCC(CC3)C2C(=O)O)c(F)c1-c1ccccc1 (racemic)      5.12

###

AUC(0-inf) for assorted molecules
measurementProtocol: in vivo
assayConditions: SD, rat, iv, 1 mg/kg
reportedProperty: AUC(0-inf) (ng·h/mL)

> print(dat)
                                   molecule  unitsymbol  measured
1  N#Cc1c(-c2c[nH]c3c(F)cc(F)cc23)nc(NC2C3CCC(CC3)C2C(=O)O)c(F)c1-c1ccccc1 (racemic) [Example 14]     ng·h/mL      3520
2  N#Cc1c(-c2c[nH]c3c(F)cc(F)cc23)nc(NC2C3CCC(CC3)C2C(=O)O)c(F)c1-c1ccco1 (racemic) [Example 1]     ng·h/mL      5710
3  N#Cc1c(-c2c[nH]c3ncc(F)cc23)nc(NC2C3CCC(CC3)C2C(=O)O)c(F)c1C1CC1 (racemic) [Example 9]     ng·h/mL      2710
4  N#Cc1c(-c2c[nH]c3c(F)cc(F)cc23)nc(NC2C3CCC(CC3)C2C(=O)O)c(F)c1-c1ccc(C(F)(F)F)cc1 (racemic) [Example 3]     ng·h/mL      2620

###

F for assorted compounds
assayConditions: SD, rat, in vivo, po, 5 mg/kg
reportedProperty: F

> print(dat)
                                   compound  reportedproperty  measured
1  N#Cc1c(-c2c[nH]c3c(F)cc(F)cc23)nc(NC2C3CCC(CC3)C2C(=O)O)c(F)c1-c1ccccc1 (racemic)                 F     74.6%
2  N#Cc1c(-c2c[nH]c3c(F)cc(F)cc23)nc(NC2C3CCC(CC3)C2C(=O)O)c(F)c1-c1ccc(C(F)(F)F)cc1 (racemic)                 F    104.6%
3  N#Cc1c(-c2c[nH]c3c(F)cc(F)cc23)nc(NC2C3CCC(CC3)C2C(=O)O)c(F)c1-c1ccco1 (racemic)                 F     83.9%
4  N#Cc1c(-c2c[nH]c3ncc(F)cc23)nc(NC2C3CCC(CC3)C2C(=O)O)c(F)c1C1CC1 (racemic)                 F     65.2%

###

measurementProtocol: in vivo
assayConditions: SD, rat, iv, 1 mg/kg
AUC(0-t) for assorted compounds
reportedProperty: AUC(0-t)

> print(dat)
                                   compound  reportedproperty      measured
1  N#Cc1c(-c2c[nH]c3ncc(F)cc23)nc(NC2C3CCC(CC3)C2C(=O)O)c(F)c1C1CC1 (racemic) [Example 9]          AUC(0-t)  2640 ng·h/mL
2  N#Cc1c(-c2c[nH]c3c(F)cc(F)cc23)nc(NC2C3CCC(CC3)C2C(=O)O)c(F)c1-c1ccco1 (racemic) [Example 1]          AUC(0-t)  5680 ng·h/mL
3  N#Cc1c(-c2c[nH]c3c(F)cc(F)cc23)nc(NC2C3CCC(CC3)C2C(=O)O)c(F)c1-c1ccc(C(F)(F)F)cc1 (racemic) [Example 3]          AUC(0-t)  2580 ng·h/mL
4  N#Cc1c(-c2c[nH]c3c(F)cc(F)cc23)nc(NC2C3CCC(CC3)C2C(=O)O)c(F)c1-c1ccccc1 (racemic) [Example 14]          AUC(0-t)  3450 ng·h/mL
